Here, each record is paired with measured MIC50 data.
System: Prevotella intermedia
Protocol: Antimicrobial activity against beta lactamase-positive Prevotella intermedia isolated from intra-abdominal infection and pelvic inflammatory disease patients after 48 hrs by agar dilution method
Format: functional
Reported Endpoint: MIC50 (µg/mL)

Molecule	Reported Endpoint	Measurement Units	Modifier Sign	Measured Value
C[C@@H](O)[C@H]1C(=O)N2C(C(=O)O)=C(S[C@@H]3CN[C@H](C(=O)N(C)C)C3)[C@H](C)[C@H]12 [MEROPENEM]	MIC50	µg/mL	=	0.03
CO/N=C(\C(=O)N[C@@H]1C(=O)N2C(C(=O)O)=C(CSc3nc(=O)c(O)nn3C)CS[C@H]12)c1csc(N)n1 [CEFTRIAXONE]	MIC50	µg/mL	=	4
C[C@@H](O)[C@H]1C(=O)N2C(C(=O)O)=C(S[C@@H]3CN[C@H](C(=O)Nc4cccc(C(=O)O)c4)C3)[C@H](C)[C@H]12	MIC50	µg/mL	=	0.03
C[C@@H](O)[C@H]1C(=O)N2C(C(=O)O)=C(SCCNC=N)C[C@H]12 [IMIPENEM ANHYDROUS]	MIC50	µg/mL	=	0.03
C[C@@H](O)[C@H]1C(=O)N2C(C(=O)O)=C(S[C@@H]3CN[C@H](CNS(N)(=O)=O)C3)[C@H](C)[C@H]12 [DORIPENEM]	MIC50	µg/mL	=	0.03
Cc1ncc([N+](=O)[O-])n1CCO [METRONIDAZOLE]	MIC50	µg/mL	=	0.5
CCC[C@@H]1C[C@@H](C(=O)N[C@@H]([C@H]2O[C@H](SC)[C@H](O)[C@@H](O)[C@H]2O)[C@H](C)Cl)N(C)C1 [CLINDAMYCIN]	MIC50	µg/mL	≤	0.016
